Test system: poly(dA-dT)n
Experiment: Thermal melting (ΔTm) of poly(dA-dT) DNA
Assay type: binding
Settings: ratio 0.3 mol compound per mole of DNA; CAC 10 buffer pH 7.0
Description: Thermal melting experiments were performed with a Cary 300 spectrophotometer. Cuvettes were mounted in a thermal block where the solution temperatures were mesaured with a thermistor in the reference cuvette. […] Poly (dA-dT) DNA concentrations were determined by measuring its absorbance at 260 nm. A ratio of 0.3 mol compound per mole of DNA was used for the complex and DNA alone was used as control. ΔTm values were determined from the peak of first derivative curves (dA/dT).
readout: ΔTm, thermal melting increase of poly(dA-dT)n

Query: Value wanted: ΔTm, thermal melting increase of poly(dA-dT)n (poly(dA-dT)n) of entry `N=C(N)c1ccc2cc(-c3ccc(-c4ccc(C(=N)N)o4)o3)[nH]c2c1`
Result: 28 ^oC

Query: Value wanted: ΔTm, thermal melting increase of poly(dA-dT)n (poly(dA-dT)n) of entry `N=C(N)c1ccc2cc(-c3ccc(-c4ccc(C(=N)N)s4)s3)[nH]c2c1`
Result: >30 ^oC

Query: Value wanted: ΔTm, thermal melting increase of poly(dA-dT)n (poly(dA-dT)n) of entry `N=C(N)c1ccc2nc(-c3ccc(-c4ccc(C(=N)N)o4)o3)[nH]c2c1`
Result: 29 ^oC

###

System: T. b. r. (Trypanosoma brucei rhodesiense) STIB900
Experiment: In vitro viability assay, T. b. r. strain STIB900
Assay type: cell-based
Conditions: Trypanosoma brucei; strain STIB900; average of duplicate determinations; read-out: T. b. r. IC50
readout: pIC50
# reply with the number alone; pIC50 is -log10 of concentration in mol/L

Known results for molecules:
>  <smilesData>
N=C(N)c1ccc2nc(-c3ccc(-c4ccc(C(=N)N)o4)o3)[nH]c2c1

>  <pIC50>
6.99

$$$$
>  <smilesData>
N=C(N)c1ccc2nc(-c3ccc(-c4ccc(C(=N)N)s4)s3)[nH]c2c1

>  <pIC50>
7.60

$$$$

Could you now look at the following molecule, please?
Query: Need pIC50, item `N=C(N)c1ccc2nc(-c3ccc(-c4ccc(C(=N)N)s4)o3)[nH]c2c1`
Result: 7.19

###

Test: Cytotoxicity in L6 rat myoblast cells
Type: cell-based
Details: cultured L6 rat myoblast cells; read-out: Cytotox. IC50 (L6)
readout: IC50 (µM)
Kindly provide the numeric value in µM only, without the unit symbol.

>  <smilesData>
N=C(N)c1ccc2cc(-c3ccc(-c4ccc(C(=N)N)o4)s3)[nH]c2c1

>  <readout>
IC50

>  <recordedValue>
17.6

$$$$

Query: Need IC50, item `N=C(N)c1ccc2nc(-c3ccc(-c4ccc(C(=N)N)s4)o3)[nH]c2c1`
Result: 15

Query: Need IC50, item `N=C(N)c1ccc2cc(-c3ccc(-c4ccc(C(=N)N)o4)o3)[nH]c2c1`
Result: 16.5

Query: Need IC50, item `N=C(N)c1ccc2nc(-c3ccc(-c4ccc(C(=N)N)s4)s3)[nH]c2c1`
Result: 26.2

Query: Need IC50, item `N=C(N)c1ccc2cc(-c3ccc(-c4ccc(C(=N)N)s4)s3)[nH]c2c1`
Result: 11.6

Query: Need IC50, item `N=C(N)c1ccc2nc(-c3ccc(-c4ccc(C(=N)N)o4)o3)[nH]c2c1`
Result: 41.8

Query: Need IC50, item `N=C(N)c1ccc2cc(-c3ccc(-c4ccc(C(=N)N)s4)o3)[nH]c2c1`
Result: 15.7

###

Tested on: poly(dA-dT)n
Assay: Thermal melting (ΔTm) of poly(dA-dT) DNA
Type: binding
Details: ratio 0.3 mol compound per mole of DNA; CAC 10 buffer pH 7.0
Listing of recorded ΔTm, thermal melting increase of poly(dA-dT)n by entry.

Known results for molecules:
>  <molecule>
N=C(N)c1ccc2cc(-c3ccc(-c4ccc(C(=N)N)o4)s3)[nH]c2c1 [Compound 4c]

>  <recordedValue>
28 ^oC

$$$$
>  <molecule>
N=C(N)c1ccc2nc(-c3ccc(-c4ccc(C(=N)N)s4)o3)[nH]c2c1 [Compound 8b]

>  <recordedValue>
27 ^oC

$$$$
>  <molecule>
N=C(N)c1ccc2nc(-c3ccc(-c4ccc(C(=N)N)s4)s3)[nH]c2c1 [Compound 8c]

>  <recordedValue>
>30 ^oC

$$$$

Could you now look at the following molecule, please?
Query: Value wanted: ΔTm, thermal melting increase of poly(dA-dT)n (poly(dA-dT)n) of entry N=C(N)c1ccc2cc(-c3ccc(-c4ccc(C(=N)N)s4)o3)[nH]c2c1 [Compound 4b]
Result: >30 ^oC
